Molecular target: BTN3A1 and BTN2A1 B30.2 domains (Homo sapiens, UniProt O00481+Q7KYR7)
Construct: BTN2A1 B30.2 in pET28a, Ni-NTA and DEAE; BTN3A1 B30.2 prepared as VpBTN3 B30.2; printed PDB ids are of BTN3A1 B30.2 only
Sequence (O00481 328-513): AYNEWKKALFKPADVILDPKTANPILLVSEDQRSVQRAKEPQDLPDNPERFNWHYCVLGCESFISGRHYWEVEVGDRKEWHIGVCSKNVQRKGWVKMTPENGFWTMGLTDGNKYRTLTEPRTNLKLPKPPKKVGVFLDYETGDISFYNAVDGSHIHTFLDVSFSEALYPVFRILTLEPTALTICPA
Sequence (Q7KYR7 310-506 limits assumed): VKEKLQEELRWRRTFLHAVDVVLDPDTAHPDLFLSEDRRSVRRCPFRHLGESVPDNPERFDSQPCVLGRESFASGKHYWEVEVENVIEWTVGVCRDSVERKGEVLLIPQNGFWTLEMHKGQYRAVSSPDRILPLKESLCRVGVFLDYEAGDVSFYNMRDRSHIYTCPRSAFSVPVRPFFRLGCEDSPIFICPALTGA
Assay: ITC, DMASPP titrated into mixture of BTN2A1 and BTN3A1 B30.[…] (first titration)

>  <structure_as_smiles>
CC(C)=CCSP(=O)(O)OP(=O)(O)O

>  <target>
BTN3A1 and BTN2A1 B30.2 domains (Homo sapiens, UniProt O00481+Q7KYR7)

>  <Kd / µM>
8.19

$$$$
